System: MDA-MB-468 breast
Experiment: NCI tumour cell line growth inhibition, 48 h; in the data active means GI50 below about 0.43 µM; inactive means the rest
Select the matching outcome among label 1 (active), label 0 (inactive)

Recorded results for 5 molecules are shown here.
CC(C)n1nc(-c2cc3cc(O)ccc3[nH]2)c2c(N)ncnc21: label 1
CCCCCCCC/C=C/CCCCCCCC(=O)OC[C@H]1O[C@@H](n2ccc(N)nc2=O)C(F)(F)[C@@H]1O: label 1
CCCCC(O)(c1ccc(Cl)cc1)C(CN1CCOCC1)c1ccc(Cl)cc1 (configuration not stated): label 0
COC(=O)[C@H](C)NC(=O)NC(=O)NC(=O)CI: label 0
O=C1OC(C(O)CO)C(=O)C1=O (configuration not stated): label 0

## Input Per the records of this test, what outcome belongs to `NS(=O)(=O)c1ccc(N=Nc2c(O)[nH]c3ccc(-c4cnco4)cc23)cc1` ?
## Output label 0

## Input Lab log entry: `C[C@@]12CC=C3c4nc(Nc5cccc(O)c5)sc4CC[C@]3(C)[C@H]1CC[C@]1(C)C(=O)CC[C@@H]21` — outcome as called in the assay?
## Output label 0
